System: 324938-238-R-J1-PDC complex spheroids viability;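 note: viability read after seven days of drug exposure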
assay: Anticancer human tumor 324938-238-R-J1-PDC patient-derived bladder carcinoma cell line growth inhibition [CLK]; active = viability on the fitted dose curve at most 10% of control; inactive = the rest
conditionContext: second compound 0.1 µM; first compound 1 µM
In this exercise, the only acceptable responses are Y = active, N = inactive

Please review the entries below; each comes with its answer.
COc1c(OCCCN2CCOCC2)ccc2c3n(c(=NC(=O)c4cnc(N)nc4)nc12)CCN3 + CNC(=O)c1ccc(Nc2nc(OC3CCCC3)c3c(-c4ccc5nc(C)oc5c4)c[nH]c3n2)c(OC)c1: Y
O=c1[nH]cc(F)c(=O)[nH]1 + CN1CCN(c2cc(C(=O)Nc3cc4cc(-c5cnn(C)c5)ccc4cn3)ccn2)CC1: N
C=C(F)C(=O)N1CCN(c2nc(OCC3CCCN3C)nc3c2CCN(c2cccc4cccc(Cl)c24)C3)CC1CC#N (stereo not drawn) + CN1CCN(c2cc(C(=O)Nc3cc4cc(-c5cnn(C)c5)ccc4cn3)ccn2)CC1: N
O=c1[nH]cc(F)c(=O)[nH]1 + CNC(=O)c1ccc(Nc2nc(OC3CCCC3)c3c(-c4ccc5nc(C)oc5c4)c[nH]c3n2)c(OC)c1: N
CC1COCCN1c1cc(C2(S(C)(=N)=O)CC2)nc(-c2ccnc3[nH]ccc23)n1 (stereo not drawn) + CNC(=O)c1ccc(Nc2nc(OC3CCCC3)c3c(-c4ccc5nc(C)oc5c4)c[nH]c3n2)c(OC)c1: N
COC1C=CCC(C)C(C)S(=O)(=O)NC(=O)c2ccc3c(c2)N(CC2CCC21)CC1(CCCc2cc(Cl)ccc21)CO3 (stereo not drawn) + CN1CCN(c2cc(C(=O)Nc3cc4cc(-c5cnn(C)c5)ccc4cn3)ccn2)CC1: N
CC(Nc1ccc2c(c1)OCCn1cc(N3C(=O)OCC3C(F)F)nc1-2)C(N)=O (stereo not drawn) + CNC(=O)c1ccc(Nc2nc(OC3CCCC3)c3c(-c4ccc5nc(C)oc5c4)c[nH]c3n2)c(OC)c1: N

Req: Kindly provide the recorded test outcome for the following molecule: CC1(C)CCC(CN2CCN(c3ccc(C(=O)NS(=O)(=O)c4ccc(NCC5CCOCC5)c([N+](=O)[O-])c4)c(Oc4cnc5[nH]ccc5c4)c3)CC2)=C(c2ccc(Cl)cc2)C1 + CN1CCN(c2cc(C(=O)Nc3cc4cc(-c5cnn(C)c5)ccc4cn3)ccn2)CC1
Resp: N
